For each of the compounds below, state its log10(IC50).
target: CCK receptor (pancreas) (Rattus norvegicus, UniProt P30551); construct: The whole pancreas was dissected free of fat tissue and was homogenized; assay: biochemical; conditions: rat pancreas membranes, 50 pM 125I-CCK-8, 25°C 2 hours
Sequence (P30551 whole entry): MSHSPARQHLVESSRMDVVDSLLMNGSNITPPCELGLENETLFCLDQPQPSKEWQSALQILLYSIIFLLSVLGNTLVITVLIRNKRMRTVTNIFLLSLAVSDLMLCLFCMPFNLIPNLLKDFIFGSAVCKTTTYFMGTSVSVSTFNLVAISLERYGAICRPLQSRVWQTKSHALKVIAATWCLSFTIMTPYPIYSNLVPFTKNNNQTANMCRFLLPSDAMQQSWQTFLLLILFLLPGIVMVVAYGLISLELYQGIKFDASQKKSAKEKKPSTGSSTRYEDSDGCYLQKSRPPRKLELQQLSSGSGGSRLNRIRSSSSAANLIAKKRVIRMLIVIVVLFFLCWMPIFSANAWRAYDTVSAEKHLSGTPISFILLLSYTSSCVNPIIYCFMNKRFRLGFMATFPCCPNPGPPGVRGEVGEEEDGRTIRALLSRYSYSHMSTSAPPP
Could you please treat all values as log10 of IC50 in nM?

{"columns": ["compound", "log10(IC50)"],
 "data": [
  ["CC(C)S(=O)(=O)NC(=O)c1cccc(NC(=O)NC2N=C(C3CCCCC3)c3ccccc3N(C)C2=O)c1 (single isomer, unassigned) [24 (Peak B)]", 0.70],
  ["CC(C)CN1C(=O)C(NC(=O)Nc2cccc(C(=O)NS(C)(=O)=O)c2)N=C(C2CCCCC2)c2ccccc21 (racemic)", 2.76],
  ["CN1C(=O)C(NC(=O)Nc2cccc(S(=O)(=O)NC(=O)c3ccccc3)c2)N=C(C2CCCCC2)c2ccccc21 (racemic)", 2.87],
  ["CN1C(=O)C(NC(=O)Nc2cccc(C(=O)NS(=O)(=O)C(F)(F)F)c2)N=C(C2CCCCC2)c2ccccc21 (racemic)", 1.14],
  ["CN1C(=O)C(NC(=O)Nc2cccc(-c3nn[nH]n3)c2)N=C(C2CCCC2)c2ccccc21 (racemic)", 1.75]
]}

List reported log10(IC50) for each of these compounds:
1. Cc1ccccc1S(=O)(=O)NC(=O)c1cccc(NC(=O)N[C@@H]2N=C(C3CCCCC3)c3ccccc3N(C)C2=O)c1
2. CN1C(=O)C(NC(=O)Nc2ccc3c(c2)C(=O)NS(=O)(=O)C3)N=C(C2CCCCC2)c2ccccc21 (racemic)

3.20
2.00

List reported log10(IC50) for each of these compounds:
1. CCS(=O)(=O)NC(=O)c1cccc(NC(=O)NC2N=C(C3CCCCC3)c3ccccc3N(C)C2=O)c1 (racemic)
2. CN1C(=O)C(NC(=O)Nc2cccc(-c3nnn(C)n3)c2)N=C(C2CCCCC2)c2ccccc21 (racemic)
3. CC(C)S(=O)(=O)NC(=O)c1cccc(NC(=O)NC2N=C(C3CCCC3)c3ccccc3N(C)C2=O)c1 (racemic)
4. CCN1C(=O)C(NC(=O)Nc2cccc(C(=O)NS(C)(=O)=O)c2)N=C(C2CCCC2)c2ccccc21 (racemic)
5. CN1C(=O)C(NC(=O)Nc2cccc(C(=O)NS(=O)(=O)c3ccccc3)c2)N=C(C2CCCC2)c2ccccc21 (racemic)
6. CN1C(=O)C(NC(=O)Nc2cccc(C(=O)O)c2)N=C(C2CCCCC2)c2ccccc21 (racemic)

1. 0.70
2. 0.92
3. 2.48
4. 1.34
5. 2.49
6. 0.49

* * *

target: CCK receptor (brain, cortex) (Cavia porcellus); construct: the cortex was removed and homogenized in 25 mL ice-cold 0.32 M sucrose; from tissue; host or cells: guinea pig brain cortex P2 membrane pellet; assay: biochemical; assay type: binding, guinea pig; conditions: guinea pig cortex membranes, 50 pM 125I-CCK-8, 25°C 2 hours; read-out: IC50 ^125I-CCK Brain
Sequence (H0VZC5 1-426): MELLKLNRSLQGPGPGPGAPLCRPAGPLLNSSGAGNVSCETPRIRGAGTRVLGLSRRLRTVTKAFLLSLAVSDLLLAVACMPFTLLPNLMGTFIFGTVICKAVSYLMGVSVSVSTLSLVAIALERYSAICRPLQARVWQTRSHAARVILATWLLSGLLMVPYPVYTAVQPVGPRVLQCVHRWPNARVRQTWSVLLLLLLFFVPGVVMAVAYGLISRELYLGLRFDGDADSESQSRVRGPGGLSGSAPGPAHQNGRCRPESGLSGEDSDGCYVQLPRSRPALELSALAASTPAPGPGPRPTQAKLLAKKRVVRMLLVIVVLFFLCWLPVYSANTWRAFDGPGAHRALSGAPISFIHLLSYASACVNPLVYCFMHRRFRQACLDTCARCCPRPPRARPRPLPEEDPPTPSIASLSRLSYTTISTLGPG
measurement_label: IC50 (nM)
One number for each entry, in nM.

Examples with their reported IC50 follow.
{"columns": ["compound", "readout_units", "observed_result"],
 "data": [
  ["CN1C(=O)C(NC(=O)Nc2cccc(C(=O)NS(=O)(=O)c3ccccc3)c2)N=C(C2CCCCC2)c2ccccc21 (racemic)", "nM", 0.58],
  ["CN1C(=O)C(NC(=O)Nc2cccc(S(=O)(=O)Nc3nncs3)c2)N=C(C2CCCCC2)c2ccccc21 (racemic)", "nM", 1.2],
  ["CCS(=O)(=O)NC(=O)c1cccc(NC(=O)NC2N=C(C3CCCCC3)c3ccccc3N(C)C2=O)c1 (racemic)", "nM", 0.96]
]}

Would you kindly look at the next entry?
Please report the recorded IC50 for CCCN1C(=O)C(NC(=O)Nc2cccc(C(=O)NS(=O)(=O)C(C)C)c2)N=C(C2CCCC2)c2ccccc21 (racemic) .
1.2

Source listed as patent EP0514133A1.
